Catalogue of viability, T/C readings, one per entry.
# Test system: HUVEC/MSC spheroids viability
# method-summary: Human HUVEC/MSC cell line growth inhibition [KRAS2];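 also: percent of DMSO vehicle control luminescence so 100% = untreated viability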
# condition-parameters: second compound 0.316 µM; first compound 3 µM; hits give low values
Give just the numeric value; % need not be written.

Reference set (4 entries):
CC1COCCN1c1cc(-c2ccnn2C)c2ccnc(-c3ccn[nH]3)c2n1 (stereo not given) + COc1cc2nc(C)nc(NC(C)c3cc(N)cc(C(F)(F)F)c3)c2cc1OC1CCOC1 : 52.4
CC(=O)OC12COC1CC(O)C1(C)C(=O)C(O)C3=C(C)C(OC(=O)C(O)C(NC(=O)OC(C)(C)C)c4ccccc4)CC(O)(C(OC(=O)c4ccccc4)C21)C3(C)C (stereo not given) + C=CC(=O)N1CCN(c2nc(=O)n(-c3c(C)ccnc3C(C)C)c3nc(-c4c(O)cccc4F)c(F)cc23)C(C)C1 : 70.3
CC1COCCN1c1cc(-c2ccnn2C)c2ccnc(-c3ccn[nH]3)c2n1 (stereo not given) + C=CC(=O)N1CCN(c2nc(=O)n(-c3c(C)ccnc3C(C)C)c3nc(-c4c(O)cccc4F)c(F)cc23)C(C)C1 : 48.6
CC1COCCN1c1cc(-c2ccnn2C)c2ccnc(-c3ccn[nH]3)c2n1 (stereo not given) + CNCc1ccccc1-c1csc(C(C)Nc2nc(C)nc3cc(OC)c(OC)cc23)c1 : 42.8

# next compound below
Fill in the recorded viability, T/C for this compound, with HUVEC/MSC spheroids viability as test system: CC(=O)OC12COC1CC(O)C1(C)C(=O)C(O)C3=C(C)C(OC(=O)C(O)C(NC(=O)OC(C)(C)C)c4ccccc4)CC(O)(C(OC(=O)c4ccccc4)C21)C3(C)C (stereo not given) + CC1OCC2(CCN(c3cnc(Sc4ccnc(N)c4Cl)c(N)n3)CC2)C1N
68.4
